Collected literature values of pIC50 measured for Receptor-type tyrosine-protein kinase FLT3 (Homo sapiens, UniProt P36888).
pIC50: −log10 of the molar value.

Exercise: Which pIC50 is listed for "CCc1nc2c(N)ncc(-c3cnn(-c4ncc(C(C)(C)O)cn4)c3)c2nc1NC1CCOCC1" ?
Key: ≥ 8.00

Exercise: Then this compound: "COc1ccc(C(=O)NC(=O)Nc2ccc3c(c2)/C(=C/c2ccc[nH]2)C(=O)N3)cc1"
Key: 6.70

Exercise: Then this compound: "CCc1nc2c(N)ncc(-c3ccc(N4CCC(CN5CCN(C)CC5)CC4)c(OC)c3)c2nc1NC1CCOCC1"
Key: ≥ 8.00

Exercise: Then this compound: "CC[C@H](C)Nc1ncc2c(-c3cncc(S(C)(=O)=O)c3)cc([C@H]3CC[C@H](O)CC3)n2n1"
Key: 5.00 to 6.00

Exercise: Then this compound: "CCc1cc(Nc2ncc3c(OC4CCNCC4)ncc([C@H]4CC[C@H](O)CC4)c3n2)ccc1Cl"
Key: 6.00 to 7.00

* * *

Collected literature values of pIC50 measured for Receptor-type tyrosine-protein kinase FLT3 (Homo sapiens, UniProt P36888).
pIC50: −log10 of the molar value.

Exercise: Which pIC50 is listed for "CCN1CCN(c2ccc3[nH]c(-c4cc(-c5ccc(NC(=O)Nc6ccc(Cl)c(C(F)(F)F)c6)cc5)[nH]n4)nc3c2)CC1" ?
Key: > 7.30

Exercise: Then this compound: "O=C(Nc1ccc(Cc2c[nH]c3ncccc23)cc1)Nc1cccc(C(F)(F)F)c1"
Key: ≥ 5.00

Exercise: Then this compound: "Cc1cnc(Nc2ccc(OCCN3CCCC3)cc2)nc1NCc1ccco1"
Key: 7.99

Exercise: Then this compound: "O[C@H]1CC[C@H](c2cnc(OC3CCNCC3)c3cnc(Nc4ccc(Cl)cc4)nc32)CC1"
Key: ≥ 7.00

* * *

Collected literature values of IC50 measured for Receptor-type tyrosine-protein kinase FLT3 (Homo sapiens).

Exercise: Which IC50 is listed for "CC(C)(C)c1cc(NC(=O)Nc2ccc(C#Cc3ccc(OCCN4C[C@@H]5OCCO[C@@H]5C4)cc3)cc2)no1" ?
Key: 0.16 µM

Exercise: Then this molecule: "COC[C@H](C)Nc1ncc2c(-c3ccc(C(=O)NC(C)C)nc3)cc([C@H]3CC[C@H](O)CC3)n2n1"
Key: 1 to 10 µM

Exercise: Then this molecule: "COC[C@H](C)Nc1ncc2c(-c3ccnc(N4CCS(=O)(=O)CC4)c3)cc([C@H]3CC[C@H](O)CC3)n2n1"
Key: 0.1 to 1 µM

Exercise: Then this molecule: "COC[C@H](C)Nc1ncc2c(-c3ccnc(N4C[C@H]5CC[C@@H](C4)O5)c3)cc([C@H]3CC[C@H](O)CC3)n2n1"
Key: 0.1 to 1 µM

Exercise: Then this molecule: "COC[C@H](C)Nc1ncc2c(O[C@@H]3CCNCC3(F)F)ncc([C@H]3CC[C@H](O)CC3)c2n1"
Key: 1 to 10 µM

Exercise: Then this molecule: "COC[C@H](C)Nc1ncc2c(-c3ccc4c(c3)CC(=O)N4)cc([C@H]3CC[C@H](O)CC3)n2n1"
Key: 0.1 to 1 µM

* * *

Collected literature values of IC50 measured for Receptor-type tyrosine-protein kinase FLT3 (Homo sapiens, UniProt P36888).

Exercise: So what IC50 did "Nc1sc(-c2c(F)cccc2F)nc1C(=O)Nc1cncnc1OCC1CCNCC1" get with Receptor-type tyrosine-protein kinase FLT3 (Homo sapiens, UniProt P36888)?
Key: 40 nM

Exercise: Then this compound: "Fc1ccccc1Nc1ncc(Cc2c[nH]c3ncc(Cl)cc23)cn1"
Key: < 1000 nM

Exercise: Then this compound: "CN(C)c1ccc(-c2cc3nccnc3c(OC[C@@H]3CN(C(=O)C(F)F)CCO3)n2)cc1F"
Key: > 3000 nM

Exercise: Then this compound: "CCc1nc(C(N)=O)c(Nc2ccc3c(c2)OC[C@H]2CN(C)CCN32)nc1NC1CCOCC1"
Key: < 1 nM

Exercise: Then this compound: "COC[C@H](C)Nc1ncc2c(-c3cncc(S(C)(=O)=O)c3)cc([C@H]3CC[C@H](O)CC3)n2n1"
Key: 1000 to 10000 nM

Exercise: Then this compound: "CCc1nc2c(N)ncc(-c3ccc(N4CCC(N5CCN(C)CC5)CC4)c(OC)c3)c2nc1NC1CCN(C)CC1"
Key: ≤ 10 nM

Exercise: Then this compound: "COC[C@H](C)Nc1ncc2c(OC3CC(C)(C)N(C(C)=O)C(C)(C)C3)ncc([C@H]3CC[C@H](O)CC3)c2n1"
Key: 1000 to 10000 nM

Exercise: Then this compound: "COc1ccc(-c2cc3nccnc3c(OC[C@@H]3CN(S(C)(=O)=O)CCO3)n2)cc1OC"
Key: 1600 nM

Exercise: Then this compound: "Cc1cc(-c2cc([C@H]3CC[C@H](O)CC3)n3nc(N[C@@H](C)COC(C)C)ncc23)ccn1"
Key: 1000 to 10000 nM

Exercise: Then this compound: "CNS(=O)(=O)c1cncc(-c2cc([C@H]3CC[C@H](O)CC3)n3nc(N[C@@H](C)COC)ncc23)c1"
Key: 100 to 1000 nM

Exercise: Then this compound: "Cc1[nH]c(/C=C2\C(=O)Nc3cc(NC(=O)N4CCN(C5CC5)C4=O)ccc32)c(C)c1C(=O)O"
Key: 217 nM

Exercise: Then this compound: "O=C1c2sccc2-c2[nH]nc(-c3cccc(Cl)c3)c21"
Key: 100 to 499 nM

* * *

pIC50: −log10 of the molar value.
Collected literature values of pIC50 measured for Receptor-type tyrosine-protein kinase FLT3 (Homo sapiens).

Exercise: Which pIC50 is listed for "O=c1c2cc(F)cc(F)c2sc2c(NCCCNCCO)nc3ccccc3c12" ?
Key: < 6.00

Exercise: Then this compound: "COc1cc2c(Oc3ccc(NC(=O)c4c(C)n(C)c5ccc(OC(F)(F)F)cc5c4=O)cc3F)ccnc2cc1OCCCN1CCOCC1"
Key: 8.02

Exercise: Then this compound: "CCc1nc2c(N)ncc(-c3cnn(-c4cnc(C(C)(C)O)cn4)c3)c2nc1N[C@@H]1CC[C@H](O)C1"
Key: ≥ 8.00

Exercise: Then this compound: "O[C@H]1CC[C@H](c2cnc(OC3CCNCC3)c3cnc(Nc4ccc(Cl)c(Cl)c4)nc32)CC1"
Key: ≥ 7.00

Exercise: Then this compound: "C[C@@H](CC(F)(F)F)Nc1ncc2c(-c3cn[nH]c3)cc([C@H]3CC[C@H](O)CC3)n2n1"
Key: 6.00 to 7.00

* * *

Collected literature values of pIC50 measured for Receptor-type tyrosine-protein kinase FLT3 (Homo sapiens, UniProt P36888).
pIC50: −log10 of the molar value.

Exercise: Which pIC50 is listed for "CC[C@H](C)Nc1ncc2c(OC3CC(C)(C)NC(C)(C)C3)ncc([C@H]3CC[C@H](O)CC3)c2n1" ?
Key: 5.00 to 6.00

Exercise: Then this compound: "CCOc1ncnc2[nH]cc(C(=O)c3ccc(Nc4ccc(OC)nc4)nc3F)c12"
Key: > 6.00

Exercise: Then this compound: "COC[C@H](C)Nc1ncc2c(-c3cccc(CN4CCCC4)c3)cc([C@H]3CC[C@H](O)CC3)n2n1"
Key: 6.00 to 7.00

* * *

Collected literature values of IC50 measured for Receptor-type tyrosine-protein kinase FLT3 (Homo sapiens).

Exercise: Which IC50 is listed for "COC[C@H](C)Nc1ncc2c(-c3cnn(C4(C(=O)N5CCCC5)CC4)c3)cc([C@H]3CC[C@H](O)CC3)n2n1" ?
Key: 100 to 1000 nM

Exercise: Then this compound: "C[C@@H](COC(F)F)Nc1ncc2c(-c3ccc(S(C)(=O)=O)nc3)cc([C@H]3CC[C@H](O)CC3)n2n1"
Key: 100 to 1000 nM

Exercise: Then this compound: "O=S(=O)(c1ccc(Nc2n[nH]c3c2Cc2sccc2-3)cc1)N1CCCCC1"
Key: 100 to 499 nM

Exercise: Then this compound: COCC(C)Nc1ncc2c(-c3ccc(C(C)N4CCCC4)cc3)cc(C3CCC(O)CC3)n2n1 (stereo not shown)
Key: ≤ 100 nM

Exercise: Then this compound: "COC[C@H](C)Nc1ncc2c(-c3cnn(C4COC4)c3)cc([C@@H]3CC[C@@H](O)C(C)(C)C3)n2n1"
Key: 100 to 1000 nM

Exercise: Then this compound: "CN(C)c1ccc(C(=O)NC(=O)Nc2ccc3c(c2)NC(=O)/C3=C\c2ccc[nH]2)cc1"
Key: 134 nM

Exercise: Then this compound: CCCC(C)Nc1ncc2c(N3CC(N(C)C)C3)ncc([C@H]3CC[C@H](O)CC3)c2n1 (stereo partly shown)
Key: 1000 to 10000 nM

Exercise: Then this compound: "COc1ccc(NC(=O)Nc2ccc(-c3cc(-c4nc5cc(N6CCN(C)CC6)ccc5[nH]4)n[nH]3)cc2)cc1OC"
Key: < 50 nM

Exercise: Then this compound: "CCc1nc2c(N)ncc(-c3ccc(N4CCC(N5CCN(C)CC5)CC4)c(OC)c3)c2nc1N[C@@H]1CCOC1"
Key: ≤ 10 nM

Exercise: Then this compound: CCc1nc2c(N)ncc(-c3ccc(N4CCC(N5CCN(C)CC5)CC4)c(OC)c3)c2nc1NC1CCCC1O (stereo not shown)
Key: ≤ 10 nM
